# credit: PubChem BioAssay

test system: Human papillomavirus type 1a protein E7 (residues 44-93); assay: HPV1a E7 fragment binders on microarrays, primary screen, biochemical, small-molecule microarray, residues 44-93, 635 nm fluorescence (AID 1108); conditions: small-molecule microarray binding, fluorescence 635 nm; higher = more signal;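 note: E7 fragment applied at 1 µg/mL in TBST for 1 h at 4 C; score combines spot fluorescence with its signal to noise ratio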
endpoint: composite z-score
Please reply with the number alone, leaving off any unit.

compound	measurement.target	composite z-score
CC(C)OC(=O)C=C1C[C@@H](c2ccccn2)O[C@@H](c2ccccn2)O1	Human papillomavirus type 1a protein E7 (residues 44-93)	-0.0187
COCCOC(=O)N1C(=O)[C@@]2(c3ccccc31)[C@H](C(=O)N1CCc3cc(OC)c(OC)cc3C1)[C@H]1C(=O)O[C@H](c3ccccc3)[C@H](c3ccccc3)N1[C@@H]2c1ccc(OCCO)cc1	Human papillomavirus type 1a protein E7 (residues 44-93)	1.02
O=C1c2ccccc2[C@](Cc2ccccc2I)(C(=O)NCC(F)(F)F)[C@H](c2ccc(CO)cc2)N1Cc1ccccc1Cl	Human papillomavirus type 1a protein E7 (residues 44-93)	1.41
COCCOC(=O)N1C(=O)[C@@]2(c3cc(C#CCC(C(=O)OC)C(=O)OC)ccc31)[C@H](C(=O)Nc1nc3ccccc3s1)[C@H]1C(=O)O[C@H](c3ccccc3)[C@H](c3ccccc3)N1[C@@H]2c1ccccc1OCCO	Human papillomavirus type 1a protein E7 (residues 44-93)	0.142
O=C1C[C@@](C(=O)NCCN2CCOCC2)(c2ccc([N+](=O)[O-])cc2)[C@@H](c2ccc(CO)cc2)N1CC12CC3CC(CC(C3)C1)C2	Human papillomavirus type 1a protein E7 (residues 44-93)	1.47

Measured composite z-score, COCCOC(=O)N1C(=O)[C@@]2(c3ccccc31)[C@H](c1ccc(O)cc1)N1[C@H](c3ccccc3)[C@H](c3ccccc3)OC(=O)[C@H]1[C@@H]2C(=O)Nc1nc2ccccc2s1 : 1.19

According to the records, this compound C=CCN1C(=O)[C@@]2(Cc3ccccc31)N=C(c1ccc(OCCCO)cc1)O[C@H]2c1ccccc1 displays composite z-score of 0.896

# composite z-score (compound: CC1CC/C=C\[C@H]2OC34C=CCN(C(C)(C)C)C(=O)[C@H]3N(CCO)C(=O)[C@@H]4C2C(=O)O1 (stereo not given in full) ) is -0.432

Note to self: composite z-score recorded for COc1ccc(CCNC(=O)[C@@]2(C)c3ccccc3C(=O)N(C(C)C)[C@H]2c2ccc(CO)cc2)cc1 was 0.0331

Sure, the documented composite z-score for NCCCCCNC(=O)[C@@H]1C[C@@H]2C(=O)N[C@@H](Cc3ccccc3)C(=O)N2[C@@H]1c1ccc(O)cc1 is 1.37

The compound listed as O=C1C[C@@](C(=O)NC2CC2)(c2ccc([N+](=O)[O-])cc2)[C@@H](c2ccc(CO)cc2I)N1C1CCCCC1 has a reported composite z-score of 1.43

###

Each entry below carries its recorded z-score.
biological target: Luciferin 4-monooxygenase (Photinus pyralis); assay: firefly luciferase enzyme inhibitors, primary screen, biochemical, luminescence, purified enzyme, 2006 set (AID 1141); details: SteadyGlo luminescence, 30 min, higher = more signal, called active from +8 up or from −8 down;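 note: cell-free assay with purified firefly luciferase at 100 ng per well in PBS; test concentration not given here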
Number only, no unit.

Below, each entry is followed by its recorded z-score result.
In [3]: df
Out[3]:
                                   compound  endpoint  measured_result
0  O=C1C2C=CC(C(O)c3cccc4ccccc34)N(Nc3ccccc3F)C2C(=O)N1c1ccccc1 (stereo not drawn)   z-score             1.24
1  CN1C(=O)C2C=CC(C(O)c3ccccc3)N(N(c3ccccc3)c3ccccc3)C2C1=O (stereo not drawn)   z-score             1.07
2  N#Cc1ccc(NN2C(C(O)C(c3ccccc3)c3ccccc3)C=CC3C(=O)N(c4ccccc4)C(=O)C32)cc1 (stereo not drawn)   z-score            0.523
3  CC(CO)N1C(=O)[C@@H]2C3C(=O)OCCC/C=C\[C@H]3OC23C=CCN(C(C)(C)C)C(=O)[C@@H]13 (stereo partly drawn)   z-score           -0.562
4  O=C1O[C@@H](c2ccccc2)[C@@H](c2ccccc2)N2[C@@H](c3ccccc3OCCO)[C@]3(C(=O)Nc4ccccc43)[C@@H](C(=O)Nc3nc4ccccc4s3)[C@H]12   z-score           -0.237

Sure, the documented z-score for Oc1ccc2cc[n+](Cc3sc4ccccc4c3Cl)cc2c1 is -0.226

# compound CC#CC(=O)Oc1ccccc1C=CC(=O)OCC ; its z-score = 1.51

# z-score (compound: C=C[C@H](CO[Si](CC)(CC)CC)N(Cc1ccc(OC(C)=O)c(OC)c1)S(=O)(=O)c1ccc(Br)cc1 ) is 0.0578

###

target: Alpha-bungarotoxin (Bungarus multicinctus) (UniProt P60615); experiment: alpha-bungarotoxin binders on microarray, profiling panel, artefact control for SMM control protein annotation, biochemical, small-molecule microarray, Alexa647 label, 635/667 nm fluorescence (AID 1117); conditions: alpha-BTX-A647 binding fluorescence, higher = more signal
Sequence (P60615 whole entry, looked up): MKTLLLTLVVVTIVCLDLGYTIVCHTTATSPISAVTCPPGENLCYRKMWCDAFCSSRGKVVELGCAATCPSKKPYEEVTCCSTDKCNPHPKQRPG
endpoint: composite z-score
Lab note: record the figure alone, no unit after it.

>>> df
                                   compound           endpoint  measured_result
0  CC1CC/C=C\[C@H]2OC34C=CCN(C(C)(C)C)C(=O)[C@H]3N(C(C)CO)C(=O)[C@@H]4C2C(=O)O1 (some centres undefined)  composite z-score           -0.942
1  COC(=O)c1c(CC[C@@H](CO)NC(=O)NCCn2cc(C3(O)CCCC3)nn2)oc(C(C)=O)c1C(=O)OC  composite z-score            0.139
2  CCOC(=O)C[C@H]1[C@H](OC(=O)c2ccc(C(=O)c3ccccc3)cc2)[C@@H](NC(=O)c2ccc3ccccc3n2)c2cc(OCCCO)ccc2N1C(=O)c1ccccc1  composite z-score             1.05

Recorded result, C=CCN1C(=O)[C@@]2(CC=C)N=C(c3ccc(OCCCO)cc3)O[C@H]2c2ccccc21 , composite z-score: 0.951

###

target: Epidermal growth factor receptor (Homo sapiens); assay: EGFR binders on small-molecule microarrays, primary screen, biochemical, small-molecule microarray, 635 nm fluorescence (AID 1104); settings: EGFR binding, higher = more signal;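 note: score merges 667 nm emission intensity with spot signal to noise over triplicate slides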
endpoint: composite z-score
Returns: the value as a bare number; no unit string appended.

smiles.data	endpoint	measured.result
CCCC=C(CCC)[C@@H](NC(=O)c1cccs1)c1ccc(C(F)(F)F)cc1	composite z-score	0.569

Record summary for C=C[C@H](CO[Si](CC)(CC)CC)N(Cc1ccc(OC(C)=O)c(OC)c1)S(=O)(=O)c1ccc(Br)cc1 : reported composite z-score = 0.275

Reported composite z-score ( Cc1ccc(S[C@]2(C(=O)NCCCN(C)C)CC(=O)N(Cc3cc(C(F)(F)F)cc(C(F)(F)F)c3)[C@@H]2c2ccc(CO)cc2I)cc1 ) = -1.18

The value of composite z-score measured for the compound COCCOC(=O)N1C(=O)[C@@]2(c3cc(C#CCC(C(=O)OC)C(=O)OC)ccc31)[C@H](c1ccccc1OCCO)N1[C@H](c3ccccc3)[C@H](c3ccccc3)OC(=O)[C@H]1[C@@H]2C(=O)NC[C@H](O)c1ccccc1 turned out to be 1.17

###

Each record here notes measured composite z-score.
molecular target: Left-right determination factor 2 (Homo sapiens) (UniProt O00292); experiment: LEFTY2 binders on small-molecule microarrays, primary screen, biochemical, small-molecule microarray, 635 nm fluorescence scan (AID 1110); details: LEFTY2 binding, higher = more signal
Sequence (O00292 whole entry, looked up): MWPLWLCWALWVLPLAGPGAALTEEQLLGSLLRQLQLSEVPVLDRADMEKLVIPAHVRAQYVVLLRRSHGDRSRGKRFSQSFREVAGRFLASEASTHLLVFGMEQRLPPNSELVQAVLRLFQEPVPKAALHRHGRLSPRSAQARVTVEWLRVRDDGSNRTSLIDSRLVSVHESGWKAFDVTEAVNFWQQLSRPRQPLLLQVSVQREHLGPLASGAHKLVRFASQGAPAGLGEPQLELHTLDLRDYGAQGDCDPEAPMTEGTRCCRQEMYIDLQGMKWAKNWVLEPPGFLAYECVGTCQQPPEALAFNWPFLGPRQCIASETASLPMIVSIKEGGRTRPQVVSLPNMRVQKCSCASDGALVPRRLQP

compound	measurement.target	composite z-score
COC(=O)[C@@]1(Cc2ccc(OC)cc2)[C@H]2c3cc(C(=O)N(C)C)n(Cc4ccc(S(C)(=O)=O)cc4)c3C[C@H]2CN1C(=O)c1ccccc1	Left-right determination factor 2 (Homo sapiens) (UniProt O00292)	-0.0612

Left-right determination factor 2 (Homo sapiens) (UniProt O00292) data for COC(=O)C(CC#Cc1ccc2c(c1)[C@]1(C(=O)N2)[C@H](c2ccc(OCCO)cc2)N2[C@H](c3ccccc3)[C@H](c3ccccc3)OC(=O)[C@H]2[C@@H]1C(=O)Nc1nc2ccccc2s1)C(=O)OC ; its composite z-score: 0.582

For COC(=O)[C@@]1(Cc2ccccc2)N=C(c2ccc(OCCCO)cc2)O[C@H]1c1ccccc1 on Left-right determination factor 2 (Homo sapiens) (UniProt O00292), measured composite z-score was -1.06

The reported composite z-score value, Left-right determination factor 2 (Homo sapiens) (UniProt O00292), for COc1ccc(/C=C/C=O)cc1 reads 0.0844

Left-right determination factor 2 (Homo sapiens) (UniProt O00292) composite z-score of COc1cc2c(cc1OC)CN(C(=O)[C@@H]1[C@H]3C(=O)O[C@H](c4ccccc4)[C@H](c4ccccc4)N3[C@H](c3ccccc3OCCO)[C@@]13C(=O)Nc1ccc(C#CCCO)cc13)CC2 is 0.268

// composite z-score (Left-right determination factor 2 (Homo sapiens) (UniProt O00292)) for CC1CC/C=C\[C@H]2OC34C=CCN(C(C)(C)C)C(=O)[C@H]3N(CCO)C(=O)[C@@H]4C2C(=O)O1 (some centres undefined) = -1.66
